Data provenance is patent US20050197338A1.

Target: human IKK-2 (rhIKK-2 homodimer) (Homo sapiens, UniProt O14920)
Construct: FLAG (DYKDDDDKD) (C); made in house; host or cells: insect cells (baculovirus, pFastBac)
Sequence (O14920 whole entry): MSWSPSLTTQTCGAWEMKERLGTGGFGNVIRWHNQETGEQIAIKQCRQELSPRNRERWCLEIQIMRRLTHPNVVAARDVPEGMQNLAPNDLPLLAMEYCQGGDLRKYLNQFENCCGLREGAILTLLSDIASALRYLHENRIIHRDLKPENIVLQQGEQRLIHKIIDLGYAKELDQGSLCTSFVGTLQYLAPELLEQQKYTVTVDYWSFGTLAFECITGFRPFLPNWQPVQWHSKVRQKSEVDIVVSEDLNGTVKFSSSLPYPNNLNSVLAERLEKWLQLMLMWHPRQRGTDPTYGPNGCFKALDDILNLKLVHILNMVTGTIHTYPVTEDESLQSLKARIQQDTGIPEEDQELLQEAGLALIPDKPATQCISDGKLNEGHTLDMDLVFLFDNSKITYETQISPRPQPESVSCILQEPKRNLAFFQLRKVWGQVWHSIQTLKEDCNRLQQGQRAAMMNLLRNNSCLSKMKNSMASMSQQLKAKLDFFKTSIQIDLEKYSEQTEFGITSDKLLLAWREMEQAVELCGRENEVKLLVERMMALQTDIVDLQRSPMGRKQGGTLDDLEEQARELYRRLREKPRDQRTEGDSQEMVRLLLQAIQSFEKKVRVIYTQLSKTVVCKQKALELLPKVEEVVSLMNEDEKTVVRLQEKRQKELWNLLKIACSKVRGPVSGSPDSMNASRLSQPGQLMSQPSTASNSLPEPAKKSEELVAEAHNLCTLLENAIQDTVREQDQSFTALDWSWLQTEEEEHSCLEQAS
Assay: IKK-2 Resin Enzyme Assay (Human IKK-2 Enzyme Assay)
Format: biochemical
Conditions: human IKK-2, resin enzyme assay; read-out: IC50 (μM) hIKK-2
observed property: IC50 (µM)
Lab book: enter the figure in µM, no units written.

Below, 8 compounds whose answers are already recorded.
CSc1cccc(-c2ccc(-n3cc(C(N)=O)c(NC(N)=O)n3)cc2)c1 [Example 118] :: 3.07
NC(=O)c1nn(-c2cccc(Br)c2)cc1NC(N)=S [Example 12] :: 1.43
NC(=O)Nc1cn(-c2cccc(/C=C/c3ccccc3)c2)nc1C(N)=O [Example 67] :: 5.24
NC(=O)Nc1cn(-c2ccc(S(=O)(=O)c3ccc(F)cc3)cc2Cl)nc1C(N)=O [Example 377] :: 0.113
NC(=O)Nc1cn(-c2ccc([S+]([O-])c3ccccn3)cc2)nc1C(N)=O (stereo not drawn) [Example 284] :: 0.986
CNC(=O)Nc1cn(-c2ccc(I)c(C)c2)nc1C(N)=O [Example 245] :: 5.51
NC(=O)Nc1cn(-c2ccc(-c3cccc(OCc4ccncc4)c3)cc2)nc1C(N)=O [Example 171] :: 6.84
COc1ccc(-n2cc(NC(N)=O)c(C(N)=O)n2)cc1Cl [Example 209] :: 1.04

// next item, IC50 requested
## Input Reported IC50, compound NC(=O)Nc1cn(-c2cccc(-c3ccc(CO)cc3)c2)nc1C(N)=O [Example 48] : ____
## Output 1.04

====

Below, each of the compounds is paired with its reported IC50 value.
Target: human IKK-2 (rhIKK-2 homodimer) (Homo sapiens)
Construct: FLAG (DYKDDDDKD) (C); made in house; host or cells: insect cells (baculovirus, pFastBac)
Experiment: IKK-2 Resin Enzyme Assay (Human IKK-2 Enzyme Assay)
Type: biochemical
Details: human IKK-2, resin enzyme assay; read-out: IC50 (μM) hIKK-2
Lab book: enter the figure in µM, no units written.

Below, 2 compounds whose answers are already recorded.
NC(=O)Nc1cn(-c2ccc(-c3ccc[nH]3)cc2)nc1C(N)=O :: 0.59
N#CCOc1ccc(F)cc1-c1ccc(-n2cc(NC(N)=O)c(C(N)=O)n2)cc1 :: 0.044

## Input Reported IC50, compound Cc1cc(-n2cc(NC(N)=O)c(C(N)=O)n2)ccc1S(=O)(=O)c1ccc(F)cc1 : ____
## Output 0.724

## Input Reported IC50, compound Cc1cc(-n2cc(NC(N)=O)c(C(N)=O)n2)ccc1-c1cccc(O)c1 : ____
## Output 0.161

## Input Reported IC50, compound Cc1cc(-c2ccc(-n3cc(NC(N)=O)c(C(N)=O)n3)cc2)ccc1F : ____
## Output 5.52

## Input Reported IC50, compound NC(=O)Nc1cn(-c2ccc(I)cc2)nc1C(N)=O : ____
## Output 0.322

====

Target: human IKK-2 (rhIKK-2 homodimer) (Homo sapiens, UniProt O14920)
Construct: FLAG (DYKDDDDKD) (C); made in house; host or cells: insect cells (baculovirus, pFastBac)
Assay: IKK-2 Resin Enzyme Assay (Human IKK-2 Enzyme Assay)
Type: biochemical
Conditions: human IKK-2, resin enzyme assay; read-out: IC50 (μM) hIKK-2
Reported IC50 maps to class as: class A: < 1 µM; class B: ≥ 1 µM and < 3 µM; class C: ≥ 3 µM

The following compounds have reported results that may help.
COc1ccc(-c2cccc(-n3cc(NC(N)=O)c(C(N)=O)n3)c2)cc1 :: class C
COc1cccc(-c2cccc(-n3cc(NC(N)=O)c(C(N)=O)n3)c2)c1 :: class C
COc1ccc(Cl)cc1-c1ccc(-n2cc(NC(N)=O)c(C(N)=O)n2)cc1 :: class B
Cc1cccc(-c2cccc(-n3cc(NC(N)=O)c(C(N)=O)n3)c2)c1 :: class C

## Input Textbook exercise: identify the category of the compound given here, NC(=O)Nc1cn(-c2ccc(-c3ccc(C(=O)NCc4ccccc4)cc3)cc2)nc1C(N)=O , according to its measured value.
## Output class B

## Input Textbook exercise: identify the category of the compound given here, CCOc1cc(-n2cc(NC(N)=O)c(C(N)=O)n2)ccc1-c1ccc(O)cc1 , according to its measured value.
## Output class C

## Input Textbook exercise: identify the category of the compound given here, N#CCc1cccc(-c2ccc(-n3cc(NC(N)=O)c(C(N)=O)n3)cc2)c1 , according to its measured value.
## Output class B

## Input Textbook exercise: identify the category of the compound given here, NC(=O)Nc1cn(-c2ccc(-c3cccc(OCc4cccnc4)c3)cc2)nc1C(N)=O , according to its measured value.
## Output class B

## Input Textbook exercise: identify the category of the compound given here, NC(=O)Nc1nn(-c2ccc(-c3ccc(Cl)cc3Cl)cc2)cc1C(N)=O , according to its measured value.
## Output class C

## Input Textbook exercise: identify the category of the compound given here, Cc1cc(-n2cc(NC(N)=O)c(C(N)=O)n2)ccc1I , according to its measured value.
## Output class A

## Input Textbook exercise: identify the category of the compound given here, Cc1cc(F)ccc1-c1cccc(-n2cc(NC(N)=O)c(C(N)=O)n2)c1 , according to its measured value.
## Output class C

## Input Textbook exercise: identify the category of the compound given here, CC(C)Cc1ccc(-c2cccc(-n3cc(NC(N)=O)c(C(N)=O)n3)c2)cc1 , according to its measured value.
## Output class C

====

Target: human IKK-2 (rhIKK-2 homodimer) (Homo sapiens, UniProt O14920)
Construct: FLAG (DYKDDDDKD) (C); made in house; host or cells: insect cells (baculovirus, pFastBac)
Experiment: IKK-2 Resin Enzyme Assay (Human IKK-2 Enzyme Assay)
Format: biochemical
Conditions: human IKK-2, resin enzyme assay; read-out: IC50 (μM) hIKK-2
Below, each of the molecules is paired with its reported IC50 value.
Lab book: enter the figure in µM, no units written.

Below, 2 molecules whose answers are already recorded.
CC(C)(C)OC(=O)COc1cccc(-c2ccc(-n3cc(NC(N)=O)c(C(N)=O)n3)cc2)c1 :: 3.67
CC(C)c1cccc(-c2ccc(-n3cc(C(N)=O)c(NC(N)=O)n3)cc2)c1 :: 11

// next item, IC50 requested
## Input Lab note: need IC50 with human IKK-2 (rhIKK-2 homodimer) (Homo sapiens, UniProt O14920) for entry CNC(=O)Nc1cn(-c2cccc(Br)c2)nc1C(N)=O , please look it up.
## Output 8.05

====

Molecular target: human IKK-2 (rhIKK-2 homodimer) (Homo sapiens)
Construct: FLAG (DYKDDDDKD) (C); made in house; host or cells: insect cells (baculovirus, pFastBac)
Test: IKK-2 Resin Enzyme Assay (Human IKK-2 Enzyme Assay)
Type: biochemical
Conditions: human IKK-2, resin enzyme assay; read-out: IC50 (μM) hIKK-2
Below, each of the compounds is paired with its reported log10(IC50) value.
Values are log10 of IC50 in µM.

Below, 5 compounds whose answers are already recorded.
NC(=O)Nc1cn(-c2cccc(-c3ccsc3)c2)nc1C(N)=O :: 0.93
CC(=O)c1ccccc1-c1cccc(-n2cc(NC(N)=O)c(C(N)=O)n2)c1 :: 0.54
NC(=O)Nc1cn(-c2ccc(-c3ccc(C(=O)O)c(F)c3)cc2)nc1C(N)=O :: -0.85
NC(=O)Nc1cn(-c2ccc(Sc3ccc(F)cc3)cc2)nc1C(N)=O :: -0.14
NC(=O)Nc1cn(-c2ccc(-c3ccccc3O)cc2F)nc1C(N)=O :: -0.05

## Input Lab note: need log10(IC50) with human IKK-2 (rhIKK-2 homodimer) (Homo sapiens) for entry NC(=O)Nc1cn(-c2ccc(-c3ccc(C(=O)Nc4ccccn4)cc3)cc2)nc1C(N)=O , please look it up.
## Output -0.05

## Input Lab note: need log10(IC50) with human IKK-2 (rhIKK-2 homodimer) (Homo sapiens) for entry NC(=O)Nc1cn(-c2cccc(-c3cncnc3)c2)nc1C(N)=O , please look it up.
## Output 0.72

====

Target: Rat IKK-2 (Rattus norvegicus, UniProt Q9QY78)
Sequence (Q9QY78 whole entry): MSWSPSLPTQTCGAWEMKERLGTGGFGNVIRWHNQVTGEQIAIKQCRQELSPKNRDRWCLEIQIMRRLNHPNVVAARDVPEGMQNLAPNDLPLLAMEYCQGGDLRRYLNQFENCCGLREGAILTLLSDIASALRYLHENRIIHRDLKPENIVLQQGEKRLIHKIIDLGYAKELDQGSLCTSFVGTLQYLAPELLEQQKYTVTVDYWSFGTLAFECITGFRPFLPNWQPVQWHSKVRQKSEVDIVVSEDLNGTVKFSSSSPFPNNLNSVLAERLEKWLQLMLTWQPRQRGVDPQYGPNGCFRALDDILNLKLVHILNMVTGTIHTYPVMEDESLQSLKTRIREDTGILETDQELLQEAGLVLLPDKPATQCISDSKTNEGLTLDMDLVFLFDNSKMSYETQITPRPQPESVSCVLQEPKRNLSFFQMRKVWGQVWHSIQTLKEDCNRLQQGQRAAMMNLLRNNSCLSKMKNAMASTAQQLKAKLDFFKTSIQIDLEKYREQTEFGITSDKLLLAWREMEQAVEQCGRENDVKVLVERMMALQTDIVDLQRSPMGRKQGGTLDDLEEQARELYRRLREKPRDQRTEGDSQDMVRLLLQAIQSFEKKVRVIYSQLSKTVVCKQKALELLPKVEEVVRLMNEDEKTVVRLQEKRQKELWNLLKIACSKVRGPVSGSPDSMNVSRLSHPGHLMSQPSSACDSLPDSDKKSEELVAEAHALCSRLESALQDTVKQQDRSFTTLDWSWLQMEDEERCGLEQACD
Test: Rat IKK-2 enzyme assay
Format: biochemical
Details: read-out: IC50 (μM) rIKK-2
observed property: IC50 (µM)
Lab book: enter the figure in µM, no units written.

NC(=O)Nc1cn(-c2ccc(-c3ccc(O)cc3)c(F)c2)nc1C(N)=O [Example 264] :: 0.17

// next item, IC50 requested
## Input Reported IC50, molecule Cc1cc(-n2cc(NC(N)=O)c(C(N)=O)n2)ccc1-c1ccc(O)c(F)c1 [Example 310] : ____
## Output 0.095

====

Target: UniProtKB Q9QY78
Assay: Rat IKK-2 enzyme assay
Format: biochemical
Conditions: read-out: IC50 (μM) rIKK-2
API: label(entry) gives label 1 if the entry's IC50 is strictly smaller than 2 µM; on equality or larger values it gives label 0.

## Input API: query returns whether the compound falls strictly under 2 µM in IC50. Query: COc1ccc(-n2cc(NC(N)=O)c(C(N)=O)n2)cc1OC
## Output label 1

## Input API: query returns whether the compound falls strictly under 2 µM in IC50. Query: NC(=O)Nc1cn(-c2ccc(-c3ccc(C(=O)O)c(F)c3)cc2)nc1C(N)=O
## Output label 1

## Input API: query returns whether the compound falls strictly under 2 µM in IC50. Query: NC(=O)Nc1cn(-c2cccc3c2sc2ccccc23)nc1C(N)=O
## Output label 0

## Input API: query returns whether the compound falls strictly under 2 µM in IC50. Query: NC(=O)Nc1cn(-c2ccc(-c3cc(F)ccc3O)cc2)nc1C(N)=O
## Output label 1
